test: Aqueous solubility of the compound; format: physicochemical
readout-type: solubility (µg/mL)

structure-as-smiles: CCOc1cccc(-c2ccc(C3=CCN(S(=O)(=O)CC(=O)NO)CC3)cc2C)c1
unit-abbreviation: µg/mL
result-modifier: <
test-result: 1
//
structure-as-smiles: Cc1cc(C2CCN(S(=O)(=O)C(C)(C)C(=O)NO)CC2)ccc1-c1cccc(OCCO)n1
unit-abbreviation: µg/mL
result-modifier: =
test-result: 1
//
structure-as-smiles: Cc1cc(C2CCN(S(=O)(=O)C(C)(C)C(=O)NO)CC2)ccc1-c1cccc(OCCO)c1
unit-abbreviation: µg/mL
result-modifier: =
test-result: 1

====

Target protein (sequence): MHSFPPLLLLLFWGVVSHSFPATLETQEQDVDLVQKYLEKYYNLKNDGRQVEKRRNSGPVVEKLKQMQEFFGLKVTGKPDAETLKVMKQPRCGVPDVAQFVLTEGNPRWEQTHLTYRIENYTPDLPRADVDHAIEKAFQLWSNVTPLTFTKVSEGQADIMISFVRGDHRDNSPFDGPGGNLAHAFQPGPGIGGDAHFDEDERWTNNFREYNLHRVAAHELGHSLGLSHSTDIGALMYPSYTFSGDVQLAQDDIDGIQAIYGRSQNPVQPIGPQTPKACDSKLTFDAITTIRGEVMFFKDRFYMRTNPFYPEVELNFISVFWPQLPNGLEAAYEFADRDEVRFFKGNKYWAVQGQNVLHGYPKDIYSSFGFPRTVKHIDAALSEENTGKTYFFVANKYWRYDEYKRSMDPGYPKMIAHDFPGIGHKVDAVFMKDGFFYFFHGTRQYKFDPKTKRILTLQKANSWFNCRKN
readout-type: IC50 (µM)

structure-as-smiles: Cc1cc(C2CCN(S(=O)(=O)C(C)(C)C(=O)NO)CC2)ccc1-c1cccc(OCCO)n1
unit-abbreviation: µM
test-result: 14

====

target: 72 kDa type IV collagenase (Homo sapiens)
Sequence (P08253 whole entry): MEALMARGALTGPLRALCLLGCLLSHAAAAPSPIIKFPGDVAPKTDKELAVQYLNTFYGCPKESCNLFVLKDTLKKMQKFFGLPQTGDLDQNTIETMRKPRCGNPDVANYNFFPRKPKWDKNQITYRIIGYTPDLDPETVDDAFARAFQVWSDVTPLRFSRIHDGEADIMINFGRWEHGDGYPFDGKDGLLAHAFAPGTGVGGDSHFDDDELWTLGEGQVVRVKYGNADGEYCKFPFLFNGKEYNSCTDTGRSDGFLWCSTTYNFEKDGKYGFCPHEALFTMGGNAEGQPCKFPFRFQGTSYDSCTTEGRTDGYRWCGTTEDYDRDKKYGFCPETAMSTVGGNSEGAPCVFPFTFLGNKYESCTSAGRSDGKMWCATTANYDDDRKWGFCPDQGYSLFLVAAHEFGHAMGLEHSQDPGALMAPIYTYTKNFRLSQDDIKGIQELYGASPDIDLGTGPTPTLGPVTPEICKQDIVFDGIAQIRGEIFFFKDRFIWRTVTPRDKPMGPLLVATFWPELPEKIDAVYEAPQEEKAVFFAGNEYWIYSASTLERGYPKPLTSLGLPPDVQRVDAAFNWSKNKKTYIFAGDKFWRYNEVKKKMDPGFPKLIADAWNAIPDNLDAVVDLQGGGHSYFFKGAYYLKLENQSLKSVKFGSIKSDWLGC
Labelling field: enter Yes if recorded IC50 is less than 0.5 µM. Enter No if it equals or exceeds that cut-off.

structure-as-smiles: Cc1cc(C2=CCN(S(=O)(=O)CC(=O)NO)CC2)ccc1-c1cccc(OC(F)(F)F)c1
class-name: Yes
//
structure-as-smiles: CNCCOc1cccc(-c2ccc(C3CCN(S(=O)(=O)C(C)(C)C(=O)NO)CC3)cc2C)c1
class-name: Yes
//
structure-as-smiles: O=C(CS(=O)(=O)N1CC=C(c2ccc(-c3ccccc3)c(Cl)c2)CC1)NO
class-name: No
//
structure-as-smiles: COc1cccc(-c2ccc(C3=CCN(S(=O)(=O)CC(=O)NO)CC3)cc2C)c1
class-name: Yes
//
structure-as-smiles: O=C(CS(=O)(=O)N1CC=C(c2ccc(-c3ccccc3)c(C(F)(F)F)c2)CC1)NO
class-name: No
//
structure-as-smiles: O=C(CS(=O)(=O)N1CC=C(c2ccc(-c3ccccc3)cc2)CC1)NO
class-name: Yes
//
structure-as-smiles: Cc1cc(C2CCN(S(=O)(=O)C(C)(C)C(=O)NO)CC2)ccc1-c1cccc(OCCO)c1
class-name: Yes
//
structure-as-smiles: CCOc1cccc(-c2ccc(C3CCN(S(=O)(=O)C(C)(C)C(=O)NO)CC3)cc2C)c1
class-name: Yes
//
structure-as-smiles: COCc1cccc(-c2ccc(C3=CCN(S(=O)(=O)CC(=O)NO)CC3)cc2C)c1
class-name: Yes
//
structure-as-smiles: CCc1cc(C2=CCN(S(=O)(=O)CC(=O)NO)CC2)ccc1-c1ccccc1
class-name: No

All figures here come from ChEMBL document CHEMBL1141365.
